System: Klebsiella pneumoniae ATCC 700603
Test Summary: Serum MIC, broth micro-dilution
Type: cell-based
Experimental Setup: Klebsiella pneumoniae, ATCC700603; 50% v/v mouse serum in Mueller Hinton II cation adjusted Broth, 35° C., 22 hours; Table 4; read-out: K pneumoniae 700603 Serum MIC
Experimental Endpoint: MIC (µM)
Record the value in µM, omitting the unit from your answer.

>  <Substance Smiles>
Cc1nc(-c2ccc(C(C)(C)C)cc2F)nc(N)c1C(=O)N[C@@H](CNS(N)(=O)=O)C(=O)N(C)[C@@H]1C(=O)N[C@@H](C)C(=O)N[C@H](C(=O)O)Cc2ccc(OC[C@H](O)CN)c(c2)-c2cc1cc(OC[C@H](O)CN)c2O

>  <Experimental Endpoint>
MIC

>  <Result Units>
µM

>  <Reported>
1

$$$$
>  <Substance Smiles>
Cc1nc(-c2ccc(C3(C)CC3)cc2)nc(C)c1C(=O)N[C@@H](CNS(N)(=O)=O)C(=O)N(C)[C@@H]1C(=O)N[C@@H](C)C(=O)N[C@H](C(=O)O)Cc2ccc(OC[C@H](O)CN)c(c2)-c2cc1cc(OC[C@H](O)CN)c2O

>  <Experimental Endpoint>
MIC

>  <Result Units>
µM

>  <Reported>
0.5

$$$$

Problem: Give its MIC value. Item: C[C@@H]1NC(=O)[C@@H](N(C)C(=O)[C@H](CNS(N)(=O)=O)NC(=O)c2cnc(-c3ccc(C(C)(C)C)cc3)nc2N)c2cc(OC[C@H](O)CN)c(O)c(c2)-c2cc(ccc2OC[C@H](O)CN)C[C@@H](C(=O)O)NC1=O
Solution: 0.5

Hey, just so you know, these numbers are from patent US11208387B2.
